Molecular target: UniProtKB P25103
Sequence (P25103 whole entry): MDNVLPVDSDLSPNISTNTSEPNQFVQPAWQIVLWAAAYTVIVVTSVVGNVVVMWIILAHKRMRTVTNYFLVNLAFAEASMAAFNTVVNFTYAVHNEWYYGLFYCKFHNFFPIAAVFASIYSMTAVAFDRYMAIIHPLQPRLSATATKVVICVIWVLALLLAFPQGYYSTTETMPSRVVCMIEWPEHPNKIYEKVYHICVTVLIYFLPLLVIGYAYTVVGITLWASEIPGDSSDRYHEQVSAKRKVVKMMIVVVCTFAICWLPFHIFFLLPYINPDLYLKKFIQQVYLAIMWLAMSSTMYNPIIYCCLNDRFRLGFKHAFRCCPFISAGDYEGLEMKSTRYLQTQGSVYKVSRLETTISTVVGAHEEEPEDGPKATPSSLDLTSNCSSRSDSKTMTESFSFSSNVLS
Assay: Signal transduction (ST), intracellular Ca++ FLIPR, NK1
Assay type: cell-based
Conditions: antagonist, Ca++ transient peak, read-out: NK1 pIC50 (converted)
measured_endpoint: log10 of IC50 (log10 of the value in nM)
Heads up: the numbers are on a log10 scale; they represent IC50 in nM.

CC(C)(C)OC(=O)N1CCC(N2CCN(CC3CCN(C(=O)c4cc(C(F)(F)F)cc(C(F)(F)F)c4)C(Cc4ccccc4)C3)CC2)CC1 (centres unmarked)	2.32
O=C(C1CC1)N1CCC(N2CCN(CC3CCN(C(=O)c4cc(C(F)(F)F)cc(C(F)(F)F)c4)C(Cc4ccccc4)C3)CC2)CC1 (centres unmarked)	2.28
COC1(CN2CCN(C3CCN(C(=O)c4ccccc4)C3)CC2)CCN(C(=O)c2cc(C(F)(F)F)cc(C(F)(F)F)c2)C(Cc2ccccc2)C1 (centres unmarked)	2.06
Cc1ccc(N2CCC(N3CCN(CC4CCN(C(=O)c5cc(C(F)(F)F)cc(C(F)(F)F)c5)C(Cc5ccccc5)C4)CC3)CC2)nn1 (centres unmarked)	2.36
O=C(Cc1c[nH]cn1)N1CCC(N2CCN(CC3CCN(C(=O)c4cc(C(F)(F)F)cc(C(F)(F)F)c4)C(Cc4ccccc4)C3)CC2)CC1 (centres unmarked)	2.08
O=C(c1cccs1)N1CCC(N2CCN(C[C@H]3CCN(C(=O)c4cc(C(F)(F)F)cc(C(F)(F)F)c4)[C@H](Cc4ccccc4)C3)CC2)CC1 (relative stereo)	2.44
O=C(c1ccccc1O)N1CCC(N2CCN(CC3CCN(C(=O)c4cc(C(F)(F)F)cc(C(F)(F)F)c4)C(Cc4ccccc4)C3)CC2)CC1 (centres unmarked)	2.09
O=C(c1cc(C(F)(F)F)cc(C(F)(F)F)c1)N1CCC(CN2CCN(C3CCN(c4ncccn4)CC3)CC2)CC1Cc1ccccc1 (centres unmarked)	1.93

Lab note: each compound below needs its log10 of IC50 filled in.
1. O=C(c1ccccc1Cl)N1CCC(N2CCN(C(=O)[C@H]3CCN(C(=O)c4cc(C(F)(F)F)cc(C(F)(F)F)c4)[C@H](Cc4ccccc4)C3)CC2)C1 (some centres unmarked)
2. O=C(c1ccoc1)N1CCC(N2CCN(CC3(O)CCN(C(=O)c4cc(C(F)(F)F)cc(C(F)(F)F)c4)C(Cc4ccccc4)C3)CC2)C1 (centres unmarked)
3. COc1cc(CC(=O)N2CCC(N3CCN(CC4CCN(C(=O)c5cc(C(F)(F)F)cc(C(F)(F)F)c5)C(Cc5ccccc5)C4)CC3)CC2)cc(OC)c1OC (centres unmarked)
4. Cc1cccc(C(=O)N2CCC(N3CCN(C[C@H]4CCN(C(=O)c5cc(C(F)(F)F)cc(C(F)(F)F)c5)[C@H](Cc5ccccc5)C4)CC3)CC2)c1
5. O=C(c1cc(C(F)(F)F)cc(C(F)(F)F)c1)N1CCC(O)(CN2CCN(C3CCNC3)CC2)CC1Cc1ccccc1 (centres unmarked)
6. O=C(c1ccccn1)N1CCC(N2CCN(C[C@H]3CCN(C(=O)c4cc(C(F)(F)F)cc(C(F)(F)F)c4)[C@H](Cc4ccccc4)C3)CC2)CC1
7. O=C(c1ccoc1)N1CCC(N2CCN(CC3CCN(C(=O)c4cc(C(F)(F)F)cc(C(F)(F)F)c4)C(Cc4ccccc4)C3)CC2)C1 (centres unmarked)
8. O=C([C@H]1CCN(C(=O)c2cc(C(F)(F)F)cc(C(F)(F)F)c2)[C@H](Cc2ccccc2)C1)N1CCN(C2CCN(Cc3ccccc3)C2)CC1 (some centres unmarked)

1: 1.50; 2: 1.56; 3: 1.93; 4: 2.22; 5: 2.17; 6: 2.31; 7: 1.70; 8: 1.88

Lab note: each compound below needs its log10 of IC50 filled in.
1. Cc1nnsc1C(=O)N1CCC(N2CCN(CC3(O)CCN(C(=O)c4cc(C(F)(F)F)cc(C(F)(F)F)c4)C(Cc4ccccc4)C3)CC2)C1 (centres unmarked)
2. O=C(C1CC1)N1CCC(N2CCN(C(=O)[C@H]3CCN(C(=O)c4cc(C(F)(F)F)cc(C(F)(F)F)c4)[C@H](Cc4ccccc4)C3)CC2)CC1
3. O=C(C1CC1)N1CCC(N2CCN(C[C@H]3CCN(C(=O)c4cc(C(F)(F)F)cc(C(F)(F)F)c4)[C@H](Cc4ccccc4)C3)CC2)C1 (some centres unmarked)

[1.60, 1.09, 1.87]

# lookup: log10 of IC50 of Cc1nnsc1C(=O)N1CCC(N2CCN(C[C@H]3CCN(C(=O)c4cc(C(F)(F)F)cc(C(F)(F)F)c4)[C@H](Cc4ccccc4)C3)CC2)C1 (some centres unmarked)
1.85
